Recorded Dmax values for a group of molecules are listed next.
Biological target: ER in MCF-7 cells (Homo sapiens (Human))
Sequence (P03372 whole entry): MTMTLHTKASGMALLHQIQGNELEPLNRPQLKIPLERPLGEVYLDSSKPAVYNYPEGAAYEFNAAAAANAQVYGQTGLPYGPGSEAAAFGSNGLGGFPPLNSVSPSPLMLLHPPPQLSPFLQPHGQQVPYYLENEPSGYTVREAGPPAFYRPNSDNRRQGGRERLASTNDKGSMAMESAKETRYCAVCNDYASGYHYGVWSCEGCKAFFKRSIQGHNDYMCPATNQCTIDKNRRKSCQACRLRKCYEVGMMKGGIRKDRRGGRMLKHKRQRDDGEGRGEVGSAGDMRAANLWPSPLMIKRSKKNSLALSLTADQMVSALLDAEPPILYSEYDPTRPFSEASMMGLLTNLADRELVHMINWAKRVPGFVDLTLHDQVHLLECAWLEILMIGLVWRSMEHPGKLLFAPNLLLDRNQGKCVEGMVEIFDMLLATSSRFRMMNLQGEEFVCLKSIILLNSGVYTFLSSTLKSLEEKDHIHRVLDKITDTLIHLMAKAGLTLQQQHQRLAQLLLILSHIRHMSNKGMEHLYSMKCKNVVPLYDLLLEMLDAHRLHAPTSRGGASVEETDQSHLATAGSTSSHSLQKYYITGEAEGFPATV
Assay: In-cell Western (ICW) ER degradation assay in MCF-7 cells
Assay type: cell-based
Conditions: MCF7, read-out: MCF7 Dmax, MCF-7, maximal ER degradation, 16 hrs treatment

The cases that follow already have their Dmax on record.
smi: COc1cc(N2CCC3(CC2)CC(CN2CCC4(CC2)COc2nc(C(=O)N[C@H]5CCC(=O)NC5=O)ccc24)C3)c(F)cc1[C@@H]1c2ccc(O)cc2CC[C@@H]1c1ccccc1
Dmax: 50 to 75%
--
smi: COc1cc(N2CCC3(CC2)CC(CN2CCC4(CC2)COc2c4cc(OC)c4c2CN([C@H]2CCC(=O)NC2=O)C4=O)C3)c(F)cc1[C@@H]1c2ccc(O)cc2CC[C@@H]1c1ccccc1
Dmax: > 75%
--
smi: COC1(CCN2CCC3(CC2)COc2c3ccc3c2CN([C@H]2CCC(=O)NC2=O)C3=O)CCN(c2ccc([C@@H]3c4ccc(O)cc4CC[C@@H]3c3ccccc3)cc2)CC1
Dmax: > 75%
--
smi: O=C1CC[C@H](N2Cc3c(ccc4c3OCC43CCN(CC4CC5(CCN(c6ncc([C@H]7c8ccc(O)cc8CC[C@H]7c7ccccc7)cn6)CC5)C4)CC3)C2=O)C(=O)N1
Dmax: 50 to 75%

Turning to the following molecule.
[Q] Please provide the recorded Dmax for `COc1cc(N2CCC(CN3CCC4(CC3)COc3c4ccc4c3CN([C@H]3CCC(=O)NC3=O)C4=O)CC2)ccc1[C@@H]1c2ccc(O)cc2CC[C@@H]1c1ccccc1` , tested on ER in MCF-7 cells (Homo sapiens (Human)).
[A] 25 to 50%
